molecular target: CYCLIN K (nuclear staining in CAL-120 cells) (Homo sapiens, UniProt O75909); construct: endogenous in cells; host or cells: CAL-120 human breast cancer cells (DSMZ ACC 459); test: CYCLIN K nuclear protein level: immunofluorescence high content analysis (CAL-120); assay type: cell-based; details: 24 h, 50% reduction of nuclear CCNK staining intensity, median, read-out: CYCLIN K degradation IF, DC50-[mol/l] (median)
Sequence (O75909 whole entry): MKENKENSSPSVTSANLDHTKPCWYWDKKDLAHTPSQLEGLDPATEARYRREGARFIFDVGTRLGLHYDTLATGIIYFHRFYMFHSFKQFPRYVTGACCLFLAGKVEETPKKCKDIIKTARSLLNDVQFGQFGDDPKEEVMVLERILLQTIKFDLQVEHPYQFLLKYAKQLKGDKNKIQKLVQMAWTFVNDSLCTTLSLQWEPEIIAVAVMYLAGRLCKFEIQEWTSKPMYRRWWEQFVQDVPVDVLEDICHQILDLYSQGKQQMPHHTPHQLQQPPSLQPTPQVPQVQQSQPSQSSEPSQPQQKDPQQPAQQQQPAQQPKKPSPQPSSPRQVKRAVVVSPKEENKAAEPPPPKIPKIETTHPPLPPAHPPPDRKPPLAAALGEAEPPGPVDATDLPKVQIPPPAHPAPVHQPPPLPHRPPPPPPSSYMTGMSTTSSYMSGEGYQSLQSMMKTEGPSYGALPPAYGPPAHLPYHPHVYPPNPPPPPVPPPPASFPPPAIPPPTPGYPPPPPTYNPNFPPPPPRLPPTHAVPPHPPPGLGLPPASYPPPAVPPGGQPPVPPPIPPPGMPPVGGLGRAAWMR
Sequence (Q9NYV4 whole entry partner): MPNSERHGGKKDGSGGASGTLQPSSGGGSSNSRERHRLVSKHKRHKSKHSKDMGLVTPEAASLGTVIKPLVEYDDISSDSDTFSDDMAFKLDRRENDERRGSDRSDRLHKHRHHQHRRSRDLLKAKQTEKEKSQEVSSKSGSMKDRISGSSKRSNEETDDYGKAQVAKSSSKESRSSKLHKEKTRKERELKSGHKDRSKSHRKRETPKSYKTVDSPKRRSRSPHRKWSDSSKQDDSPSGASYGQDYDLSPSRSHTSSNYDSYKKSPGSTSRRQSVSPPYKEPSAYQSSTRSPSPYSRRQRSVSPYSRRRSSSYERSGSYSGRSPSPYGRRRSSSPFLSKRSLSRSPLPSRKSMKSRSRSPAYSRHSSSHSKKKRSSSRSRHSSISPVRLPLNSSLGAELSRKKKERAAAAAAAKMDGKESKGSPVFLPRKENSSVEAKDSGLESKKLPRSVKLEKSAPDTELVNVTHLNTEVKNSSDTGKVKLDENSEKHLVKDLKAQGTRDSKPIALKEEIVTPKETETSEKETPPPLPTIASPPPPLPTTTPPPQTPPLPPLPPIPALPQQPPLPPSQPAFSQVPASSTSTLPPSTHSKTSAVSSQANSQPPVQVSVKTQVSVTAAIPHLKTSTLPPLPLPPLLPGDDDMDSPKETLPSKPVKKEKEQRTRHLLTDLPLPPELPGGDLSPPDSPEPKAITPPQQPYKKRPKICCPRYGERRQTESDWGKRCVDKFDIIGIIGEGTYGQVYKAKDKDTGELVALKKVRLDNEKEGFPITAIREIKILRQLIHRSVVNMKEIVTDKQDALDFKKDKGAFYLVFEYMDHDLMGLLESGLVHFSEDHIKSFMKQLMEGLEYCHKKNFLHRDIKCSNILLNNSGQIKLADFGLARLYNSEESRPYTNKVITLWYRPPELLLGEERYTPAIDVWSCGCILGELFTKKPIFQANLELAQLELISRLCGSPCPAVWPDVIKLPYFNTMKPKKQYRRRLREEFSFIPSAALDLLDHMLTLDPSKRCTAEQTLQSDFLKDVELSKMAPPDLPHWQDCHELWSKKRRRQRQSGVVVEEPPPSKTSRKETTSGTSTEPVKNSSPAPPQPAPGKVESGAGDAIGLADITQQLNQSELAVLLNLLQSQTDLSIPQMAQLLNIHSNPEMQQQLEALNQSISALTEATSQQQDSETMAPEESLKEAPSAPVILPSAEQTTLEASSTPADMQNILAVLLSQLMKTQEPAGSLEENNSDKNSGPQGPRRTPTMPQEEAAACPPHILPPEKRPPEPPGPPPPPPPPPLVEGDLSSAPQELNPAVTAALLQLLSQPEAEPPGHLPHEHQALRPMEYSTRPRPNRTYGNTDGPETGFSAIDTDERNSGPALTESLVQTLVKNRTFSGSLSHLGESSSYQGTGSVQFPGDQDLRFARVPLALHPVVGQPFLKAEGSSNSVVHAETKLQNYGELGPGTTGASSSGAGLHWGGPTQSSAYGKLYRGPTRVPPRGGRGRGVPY
In this section, each of the compounds is paired with its reported DC50.
Form entry: value (nM) — number only.

Worked cases, answers included:
CCc1cnn2c(NCc3nc4ccccc4[nH]3)nc(N3CCN(C)CC3)nc12 2.06
CN1CCN(c2nc(NCc3nc4c(F)c(F)ccc4[nH]3)n3ncc(CC(F)(F)F)c3n2)CC1 2.09

Value wanted: DC50 (CYCLIN K (nuclear staining in CAL-120 cells) (Homo sapiens, UniProt O75909)) of entry `Fc1cccc2[nH]c(CNc3nc(N4C[C@H]5CC[C@@H](C4)N5)nc4c(C5CC5)cnn34)nc12`
1.15
